# Test system: Human alphaherpesvirus 3
# assay info: Compound was tested for its antiviral activity against VZV(Ellen) using plaque reduction assay.
measured property: IC50 (µM)
Write the value in µM as a bare number.

Briefly, IC50 measured for Nc1nc2c(ncn2COCCO)c(=O)[nH]1 [ACYCLOVIR] : 15

* * *

# Tested on: Human alphaherpesvirus 3
# assay info: Compound was tested for its antiviral activity against VZV (Ellen) using plaque reduction assay.
# Type: functional, organism-based
Recorded measurements of IC50, one per entry

molecule	result
Nc1nc(O)c2ncn(OC(CO)CCO)c2n1 (configuration not stated)	30 µM

// IC50 lookup, molecule = Nc1nc(O)c2ncn(OCCC(O)CO)c2n1 (configuration not stated) , result: > 390 µM

Documented IC50 of "Nc1nc(O)c2ncn(O[C@H](CO)CCO)c2n1" : 8.3 µM

Record "Nc1nc(O)c2ncn(OC[C@H](O)CO)c2n1" , field IC50: > 415 µM

For reference, reported IC50 for "Nc1nc(O)c2ncn(OC[C@@H](O)CO)c2n1" stands at 62 µM

Value of IC50 reported for the molecule "Nc1nc(O)c2ncn(O[C@@H](CO)CCO)c2n1" is > 390 µM

For record Nc1nc(O)c2ncn(OCC(O)CO)c2n1 (configuration not stated) the listed IC50 is 154 µM
